B1: glmS ribozyme (parent)
chain: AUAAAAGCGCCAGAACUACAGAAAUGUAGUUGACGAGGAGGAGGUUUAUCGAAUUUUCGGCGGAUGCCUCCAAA

Variants of: B1
Experiment: self-cleavage kobs at 10000 uM GlcN6P; higher = faster cleavage; RNA array
Conditions: with glucosamine-6-phosphate
Variants at the floor of the assay were thinned out.
parameter-measured: self-cleavage kobs at 10000 uM GlcN6P (s⁻¹)
Express it in s⁻¹; write the number only.

>>> measured("A14G U54A G59A")
0.000121
>>> measured("A53U U69C")
0.00288
>>> measured("C11A U30C A39G")
0.000114

Query :: Can you share its self-cleavage kobs at 10000 uM GlcN6P? I mean this variant: A15G C50G C70U
Result :: 4.88e-05

Query :: Data request, read-out self-cleavage kobs at 10000 uM GlcN6P, for A33C A39G
Result :: 0.000722

Query :: For G37A U47G U55G , what is its reported self-cleavage kobs at 10000 uM GlcN6P?
Result :: 0.000412

Query :: Quick check: self-cleavage kobs at 10000 uM GlcN6P of A39G C70U C71U ?
Result :: 0.000785

Query :: If you can, please state the reported self-cleavage kobs at 10000 uM GlcN6P value of U30G G32A C71U .
Result :: 0.00359

Query :: Form field: reported self-cleavage kobs at 10000 uM GlcN6P of U31C C50G C70U
Result :: 4.29e-05
